Here the recorded cGMP Assay (EC50, pM) w/BSA, rNPRA is given for each entry.
TARGET OR TEST SYSTEM: T1, rat NPRA (rat, UniProt P18910 29-1057)
T1 sequence (looked up): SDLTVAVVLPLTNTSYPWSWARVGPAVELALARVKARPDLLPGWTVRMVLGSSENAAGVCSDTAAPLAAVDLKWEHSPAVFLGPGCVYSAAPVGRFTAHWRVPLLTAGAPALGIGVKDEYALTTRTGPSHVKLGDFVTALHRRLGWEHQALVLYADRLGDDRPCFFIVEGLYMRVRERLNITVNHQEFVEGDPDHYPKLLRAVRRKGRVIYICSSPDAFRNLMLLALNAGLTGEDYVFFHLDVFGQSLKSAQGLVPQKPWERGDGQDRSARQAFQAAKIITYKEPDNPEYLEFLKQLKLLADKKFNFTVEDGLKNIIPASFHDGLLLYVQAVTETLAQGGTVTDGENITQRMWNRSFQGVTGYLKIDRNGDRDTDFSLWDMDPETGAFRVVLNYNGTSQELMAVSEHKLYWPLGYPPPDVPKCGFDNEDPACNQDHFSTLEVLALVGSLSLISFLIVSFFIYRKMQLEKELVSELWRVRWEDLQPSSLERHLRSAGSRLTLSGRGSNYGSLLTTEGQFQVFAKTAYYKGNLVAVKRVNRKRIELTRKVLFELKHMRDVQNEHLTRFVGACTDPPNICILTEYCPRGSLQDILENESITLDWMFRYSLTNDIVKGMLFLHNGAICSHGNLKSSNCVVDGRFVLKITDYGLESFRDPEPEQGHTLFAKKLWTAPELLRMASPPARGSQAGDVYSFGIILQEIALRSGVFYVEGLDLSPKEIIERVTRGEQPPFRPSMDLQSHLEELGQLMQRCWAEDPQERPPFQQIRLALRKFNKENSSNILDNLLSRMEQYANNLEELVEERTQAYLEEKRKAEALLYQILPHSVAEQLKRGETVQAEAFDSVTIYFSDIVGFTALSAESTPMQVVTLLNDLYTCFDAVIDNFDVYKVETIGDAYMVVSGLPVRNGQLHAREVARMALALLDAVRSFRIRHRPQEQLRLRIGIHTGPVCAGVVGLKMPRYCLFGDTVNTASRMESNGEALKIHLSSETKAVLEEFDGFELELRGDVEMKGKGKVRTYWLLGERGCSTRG
ASSAY NAME: cell-based or functional assay
Numbered stars: 1 amine (or outer) side, 2 acyl side, 3 side chain; on linkers, the order of the positions; unused ones are H or OH. Bridge positions count the residues as written; N and C are the ends. * marks the point of attachment. thioacetal = thioacetal linkage between two cysteines (intrachain bond at the bracketed Cys); C20 diacid = O=C(O)CCCCCCCCCCCCCCCCCCC(=O)*; γGlu = O=C(O)[C@H](CCC(=O)[*:2])N[*:1]
EXPERIMENTAL ENDPOINT: cGMP Assay (EC50, pM) w/BSA, rNPRA

BINDER: EKXRSSCFGKRIDRIGHQSGLGCPSFRHGSPSSGAPPPS (N-terminus acylated with HOOC-(CH2)18-CO-(γGlu)-; (AEEA)6 after EKEKEKG; βAla; thioacetal linkage between the two bracketed Cys; C-terminal amide) [HOOC-(CH2)18-CO-(γGlu)-EKEKEKG-(AEEA)6-EK-βAla-RSS[CFGKRIDRIGHQSGLGC]PSFRHGSPSSGAPPPS-NH2]
QUANTITATIVE RESULT: 623000
--
BINDER: EKXRSSCFGKRIDRIGHYSGLGCPSFRHGSPSSGAPPPS (N-terminus acylated with HOOC-(CH2)18-CO-(γGlu)-; PEG24 after EKEKEKG; βAla; thioacetal linkage between the two bracketed Cys; C-terminal amide) [HOOC-(CH2)18-CO-(γGlu)-EKEKEKG-PEG24-EK-βAla-RSS[CFGKRIDRIGHYSGLGC]PSFRHGSPSSGAPPPS-NH2]
QUANTITATIVE RESULT: 187000
--
BINDER: {C20 diacid-γGlu}-EKEKEKGEKPRSSCFGKRIDRIGHQSGLGCPSFRHGSPSSGAPPPS-NH2 (bridge 14-30 via thioacetal) [HOOC-(CH2)18-CO-(γGlu)-EKEKEKGEKPRSS[CFGKRIDRIGHQSGLGC]PSFRHGSPSSGAPPPS-NH2]
QUANTITATIVE RESULT: 341000
